target: human PiT-1 (Homo sapiens, UniProt Q8WUM9); test: Inhibitory effect on 33PO4 uptake into human PiT-1-expressing CHO cells; conditions: compound 0.24, 1.2, 6 or 30 μM, pH 6.5, read-out: IC50 against 33PO4 uptake into human PiT-1-expressing cells
Sequence (Q8WUM9 whole entry): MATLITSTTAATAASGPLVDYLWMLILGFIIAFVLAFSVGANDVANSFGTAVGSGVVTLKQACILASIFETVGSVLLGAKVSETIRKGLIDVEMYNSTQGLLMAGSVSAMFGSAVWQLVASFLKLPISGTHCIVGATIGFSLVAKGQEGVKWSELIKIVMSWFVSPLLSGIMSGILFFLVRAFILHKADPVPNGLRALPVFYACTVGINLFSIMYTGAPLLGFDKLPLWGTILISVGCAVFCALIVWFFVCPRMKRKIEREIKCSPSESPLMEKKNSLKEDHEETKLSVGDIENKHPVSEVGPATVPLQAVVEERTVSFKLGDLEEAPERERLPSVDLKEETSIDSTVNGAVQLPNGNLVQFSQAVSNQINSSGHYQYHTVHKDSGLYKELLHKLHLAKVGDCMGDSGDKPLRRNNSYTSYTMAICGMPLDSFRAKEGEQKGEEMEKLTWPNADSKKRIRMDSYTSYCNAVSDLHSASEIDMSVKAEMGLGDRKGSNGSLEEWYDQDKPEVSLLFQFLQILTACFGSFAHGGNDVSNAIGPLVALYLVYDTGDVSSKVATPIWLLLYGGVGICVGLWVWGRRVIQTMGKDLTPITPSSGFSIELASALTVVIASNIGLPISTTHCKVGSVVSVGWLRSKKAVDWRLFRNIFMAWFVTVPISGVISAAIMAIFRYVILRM
Where a name gives a salt, the structure may show the parent alone.
assay metric: IC50 (µM)

As a guide, the following entries are already answered.
[
  {
    "compound": "C[C@]12CCCN1N(Cc1ccc(CN3CCOCC3)c(F)c1F)C(=O)C(C(=O)Nc1ccc(C(F)(F)F)cc1-c1ccc(C(F)(F)F)nc1)=C2O [Example 164, hydrochloride]",
    "measured on": "human PiT-1 (Homo sapiens, UniProt Q8WUM9)",
    "unit spec": "µM",
    "IC50": 4.1
  },
  {
    "compound": "CN1[C@@H](C(C)(C)C)C(O)=C(C(=O)Nc2ccc(Cl)cc2-c2ccc(C(F)(F)F)nc2)C(=O)N1Cc1ccc(OCCN2CCOCC2)c(F)c1F",
    "measured on": "human PiT-1 (Homo sapiens, UniProt Q8WUM9)",
    "unit spec": "µM",
    "IC50": 4.1
  }
]

[1] C[C@]12CCCN1N(Cc1ccc(OCCCOC[C@H](O)CO)c(F)c1F)C(=O)C(C(=O)Nc1ccc(C(F)(F)F)cc1-c1ccc(C(F)(F)F)nc1)=C2O
[2] C[C@]12CCCN1N(Cc1ccc(C#CCCCC(=O)O)c(F)c1F)C(=O)C(C(=O)Nc1ccc(C(F)(F)F)cc1-c1cc(C(F)(F)F)ncn1)=C2O
Hey, which is lower on measured IC50, 1 or 2 ? Identify your selection by its label. 1
(1: 4.4 µM, 2: 6.5 µM)

Numbers sourced from patent US9499553B2.
